Cited source: PubChem BioAssay (NCI)

Some compounds, each annotated with its measured growth.
Tested on: HCT-15 colon
Assay: NCI-60 one-dose screen, 48 h (100 = growth as untreated, 0 = no growth, -100 = all killed)
Settings: 10 µM unless noted
Description: Growth inhibition of the HCT-15 human tumor cell line is measured as a screen for anti-cancer activity. Cells are grown in 96 well plates and exposed to the test compound for 48 hours. Compounds are tested at a single concentration, which is 10^-5 M for most compounds. The reported endpoint is percent growth (GI% or GIPRCNT), where numbers from 0 - 100% represent growth inhibition, and numbers from -100% - 0 represent cell death. For example, a value of 40 represents 60% growth inhibition. […]
About 83,000 compounds went through this panel and 20% of them were active in at least one assay; those are over-represented in the sample as a whole.
assay endpoint: growth (%)

{"molecule": "Cc1ccc(Cn2c(O)c(N=NC(=O)c3ccc(S(N)(=O)=O)cc3)c3ccccc32)cc1", "assay endpoint": "growth", "val": 106}
{"molecule": "CC(=O)O.CC(=O)O.O.[Fe]", "assay endpoint": "growth", "val": 111}
{"molecule": "Cc1ccc(NC(=O)N[C@@H](Cc2cc(F)cc(F)c2)C(=O)N[C@@H]2C(=O)N3CCC[C@H]3C(=O)N3CCCC[C@H]3C(=O)N[C@@H](C)C(=O)N3C[C@H](C)C[C@H]3C(=O)O[C@H]2C)cc1", "assay endpoint": "growth", "val": 14.7}
{"molecule": "COc1cc(C)cc2oc3oc(=N)c(C(=O)c4ccccc4)cc3c(=O)c12", "assay endpoint": "growth", "val": 103}

====

system: MOLT-4 leukemia; assay: NCI-60 one-dose screen, 48 h; settings: 10 µM unless noted
About 83,000 compounds went through this panel and 20% of them were active in at least one assay; those are over-represented in the sample as a whole. Active and inactive are the calls of the source. Rule for the calls: active = growth percent below 10; inactive = the rest.
Outcomes: 1 (yes) = active, 0 (no) = inactive

{"molecule": "C=C(C)[C@@H]1CC[C@]2(COCCC#N)CC[C@]3(C)[C@H](CC[C@@H]4[C@@](C)(CCCNCCC#N)[C@H](C(=C)C)CC[C@]43C)[C@@H]12", "class label": "1 (yes)"}
{"molecule": "O=S(=O)(NCCCNc1nccc(-c2c(-c3cccc(F)c3)nc3occn23)n1)c1cccc2ccccc12", "class label": "1 (yes)"}
{"molecule": "COc1ccc(N(c2nc(-c3ccc([N+](=O)[O-])cc3)cs2)C(C)C)cc1", "class label": "0 (no)"}
{"molecule": "N#CCCc1c[nH]c2ccccc12", "class label": "0 (no)"}
{"molecule": "Cn1cc(-c2noc(C(=O)c3cn(C)c4ncc(Br)cc34)n2)c2ccccc21", "class label": "0 (no)"}
{"molecule": "NC(=O)CC1C=CCC1 (centres undefined)", "class label": "0 (no)"}
{"molecule": "Cn1cc(-c2noc(-c3cn(C)c4ncc(Br)cc34)n2)c2cc(Cl)ccc21", "class label": "0 (no)"}
{"molecule": "CCn1cc(-c2ccnc(NCCNS(=O)(=O)c3ccc(Br)cc3)c2)c(-c2cccc(OC)c2)n1", "class label": "0 (no)"}
{"molecule": "COc1cc2c(=O)[nH]c3cc([N+](=O)[O-])ccc3c2cc1[N+](=O)[O-]", "class label": "1 (yes)"}

====

test system: NCI-H226 lung; experiment: NCI-60 one-dose screen, 48 h; details: 10 µM unless noted
This is part of a sample that, as a whole, favours compounds with a hit. Of some 83,000 tested, about 20% had one in any assay. Calls of active or inactive are those of the source. Rule for the calls: active = growth percent below 10; inactive = the rest.
Outcomes: yes (active), no (inactive)

{"compound": "O=C(C[n+]1ccn(CC(OCc2ccc(Cl)cc2Cl)c2ccc(Cl)cc2Cl)c1)c1ccc(F)cc1 (stereo not given)", "assayed system": "NCI-H226 lung", "class label": "yes"}
{"compound": "COc1ccc(C(=O)CSc2nnc(-c3cc(-c4ccccc4)nc4ccccc34)o2)cc1", "assayed system": "NCI-H226 lung", "class label": "no"}
{"compound": "COc1ccc(/C=C2\\N=C(Nc3ccccc3)N(NC(=O)c3ccccn3)C2=O)cc1", "assayed system": "NCI-H226 lung", "class label": "no"}
{"compound": "CCOC(=O)Nc1ccc2c(c1)/C(=N\\NC(=S)NC)c1ccccc1-2", "assayed system": "NCI-H226 lung", "class label": "no"}
{"compound": "CCOC(=O)C(C(C)=O)c1nc2sc3cc(Cl)c(Cl)cc3n2c(=O)c1C#N (stereo not given)", "assayed system": "NCI-H226 lung", "class label": "no"}

====

tested on: OVCAR-8 ovarian; experiment: NCI-60 one-dose screen, 48 h; conditions: 10 µM unless noted
Compounds without any hit were thinned out: in the full panel of roughly 83,000, 20% have a hit. Active and inactive are the calls of the source. The calls were made as follows: active = growth percent below 10; inactive = the rest.
Outcomes: True for active, False for inactive

{"compound": "O=C(NCCCNC(=O)OCc1ccc2cccc(O)c2n1)OCc1ccc2cccc(O)c2n1", "class label": "False"}
{"compound": "C=CCc1nc2ccccc2s1", "class label": "False"}
{"compound": "CC(C)=CCC[C@](C)(O)[C@H]1CC[C@]2(C)[C@@H]1CC[C@@H]1[C@@]3(C)CC[C@H](OC(=O)CCC(=O)O)C(C)(C)[C@@H]3CC[C@]12C", "class label": "False"}
{"compound": "COc1ccc(-c2cc(-c3ccc(Cl)cc3)nc(SCCCCCCC(=O)NO)n2)cc1", "class label": "False"}
{"compound": "O=C(C[n+]1ccn(CC(OCc2ccc(Cl)cc2Cl)c2ccc(Cl)cc2Cl)c1)c1ccc(F)cc1 (stereo not drawn)", "class label": "True"}
{"compound": "COc1cc(C)cc2oc3oc(=O)c(C(=O)c4cc5cc(Br)ccc5o4)cc3c(=O)c12", "class label": "False"}
{"compound": "O=c1c2c3c(sc2n2cnnc2n1Cc1ccccc1)CCCC3", "class label": "False"}
{"compound": "CC(C)(C)c1cc(C(=O)Nc2ccccc2C(=O)NCCN)cc(C(C)(C)C)c1", "class label": "True"}
{"compound": "CCCCCn1c(C)cc(/C=C\\c2ccc3cc(C)ccc3[n+]2C)c1C", "class label": "True"}
{"compound": "CC(C)(C)c1cc(C(=O)Nc2ccc(C(=O)NCCN)cc2)cc(C(C)(C)C)c1", "class label": "False"}
{"compound": "COc1c(B(O)O)cccc1-c1nc2ccc3[nH]ncc3c2c2c1CCC2", "class label": "False"}
{"compound": "CC1(C)CC[C@]2(C(=O)O)CC[C@]3(C)[C@H](CC[C@@H]4[C@@]5(C)CCC(=O)C(C)(C)[C@@H]5CC[C@]43C)[C@H]2[C@H]1OC(=O)C(F)(F)F", "class label": "True"}
{"compound": "CCN(CC)c1cc(N)c(Cc2c(N)cc(N(CC)CC)cc2Cl)c(Cl)c1", "class label": "False"}
{"compound": "COc1ccc(/C=C(/C(=O)c2ccc(Cl)cc2)C(=O)C(F)(F)F)cc1", "class label": "False"}
{"compound": "COc1ncc(-c2ccc3nccc(C#CCCCCC(=O)NO)c3c2)cc1NS(=O)(=O)c1ccc(F)cc1F", "class label": "True"}
{"compound": "CCOC(=O)c1nn(C2CCCCO2)c2ccc(NC(=O)CSc3nc4ccccc4c(=O)[nH]3)cc12 (stereo not drawn)", "class label": "False"}
{"compound": "Cn1c(=O)c(C#N)c(-c2ccco2)n2c(S(=O)(=O)Cc3ccccc3)nnc12", "class label": "False"}
{"compound": "O=C(Nc1cccc(C2=NCCN2)c1)c1cccc(C(=O)Nc2cccc(C3=NCCN3)c2)c1", "class label": "False"}
{"compound": "CSc1nc2sc3cc(Cl)c(Cl)cc3n2c(=N)c1C#N", "class label": "False"}
{"compound": "COc1ccc(/C=C2\\N=C(Nc3ccccc3)N(NC(=O)c3ccccn3)C2=O)cc1", "class label": "False"}
{"compound": "CCN(CC)c1ccc(/C=C/c2ccc3cc(C)ccc3[n+]2CC)cc1", "class label": "True"}
{"compound": "Cc1cccc(C[C@H](NC(=O)Nc2ccc(Cl)cc2F)C(=O)N[C@@H]2C(=O)N3C[C@H](O)C[C@H]3C(=O)N3CCN(C)C[C@H]3C(=O)N[C@@H](C)C(=O)N3C[C@H](C)C[C@H]3C(=O)O[C@H]2C)c1", "class label": "False"}
{"compound": "CC1(C)C(=O)/C(=C\\c2cccnc2)C[C@]2(C)[C@H]3CC[C@@H]4[C@H]5[C@H](C(=O)/C=C/c6cccnc6)CC[C@]5(C(=O)O)CC[C@@]4(C)[C@]3(C)CC[C@@H]12", "class label": "True"}
{"compound": "Cc1cc(C)nc(SCC(=O)Nc2cccc(N=Cc3ccccc3O)c2)n1", "class label": "False"}
{"compound": "c1ccc(-c2nnc(-c3c[nH]c4ncccc34)s2)cc1", "class label": "False"}
{"compound": "COc1ccc(/C=C(/C2=NCCN2)n2ccc3ccccc32)cc1", "class label": "False"}
{"compound": "CCn1cc(-c2ccnc(NCCNS(=O)(=O)c3ccc(Br)cc3)c2)c(-c2cccc(OC)c2)n1", "class label": "False"}
{"compound": "O=C1Nc2ccccc2/C1=C/C(=O)c1ccc(N2CCCCC2)cc1", "class label": "False"}
{"compound": "O=C1COCCN1c1ccc(Nc2nc(Cl)nc(N3CCOCC3)n2)cc1", "class label": "False"}
{"compound": "C=CCCC1(C)NC(=O)NC1=O (stereo not drawn)", "class label": "False"}
{"compound": "COCc1nc2ccccc2[nH]1", "class label": "False"}
{"compound": "CCN1c2ccccc2C(Cl)(c2ccc(N(C)C)cc2)c2ccccc21", "class label": "False"}
{"compound": "Cc1ccc2c(c1)/C(=N\\N=C/c1cn(C(C)C)c3ccccc13)C(=O)N2", "class label": "False"}
{"compound": "C[C@@H](NC(=O)[C@@H](CC(=O)N1CCC(N2CCCCC2)CC1)N1C(=O)[C@@H](N2C(=O)OC[C@@H]2c2ccccc2)[C@H]1/C=C/c1cccc(Cl)c1)c1ccccc1", "class label": "False"}
{"compound": "CCc1cccc(Cl)c1", "class label": "False"}
{"compound": "CC(=O)Nc1ccc2nc3ccc(NC(C)=O)cc3[n+](-c3ccccc3)c2c1", "class label": "False"}
{"compound": "CS(=O)(=O)c1cccnn1", "class label": "False"}
{"compound": "O=C(Nc1cc(-c2cccnc2)nc(NCCCN2CCOCC2)n1)c1cc(Br)cc(C(F)(F)F)c1", "class label": "False"}
